The entries below come with measured FACS Cell Binding (Fold Above Background) values attached.
- MEASURED ON: T1, human PRLR on cells (endogenous on T47D, T47D#11, MCF7); introduced in HEK293/hPRLR/STAT5-Luc, 293/hPRLR, … (human, UniProt P16471 25-622)
- T1 construct: no tag is stated for these lines; also called prolactin receptor
- T1 sequence: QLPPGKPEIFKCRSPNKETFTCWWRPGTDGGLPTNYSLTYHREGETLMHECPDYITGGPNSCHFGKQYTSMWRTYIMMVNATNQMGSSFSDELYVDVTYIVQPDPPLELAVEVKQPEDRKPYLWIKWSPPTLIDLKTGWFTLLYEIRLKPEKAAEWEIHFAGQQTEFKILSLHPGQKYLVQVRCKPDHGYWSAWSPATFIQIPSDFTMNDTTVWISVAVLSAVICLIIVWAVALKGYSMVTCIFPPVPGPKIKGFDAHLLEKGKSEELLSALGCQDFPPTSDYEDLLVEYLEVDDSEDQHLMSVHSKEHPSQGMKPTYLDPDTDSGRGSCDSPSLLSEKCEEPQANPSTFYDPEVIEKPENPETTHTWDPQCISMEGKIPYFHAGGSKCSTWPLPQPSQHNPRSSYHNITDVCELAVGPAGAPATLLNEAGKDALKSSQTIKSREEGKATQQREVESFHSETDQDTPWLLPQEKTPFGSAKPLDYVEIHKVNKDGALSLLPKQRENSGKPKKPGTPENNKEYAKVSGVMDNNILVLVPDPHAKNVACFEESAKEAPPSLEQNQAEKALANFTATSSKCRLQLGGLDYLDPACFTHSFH
- ASSAY COMMENT: FACS on T47D cells
// units = fold; emit number, no label

What value of FACS Cell Binding (Fold Above Background) has been reported for the following binder? H1H6801P (antibody, human IgG1, V domains shown, human IgG1 Fc (H1H)) VH: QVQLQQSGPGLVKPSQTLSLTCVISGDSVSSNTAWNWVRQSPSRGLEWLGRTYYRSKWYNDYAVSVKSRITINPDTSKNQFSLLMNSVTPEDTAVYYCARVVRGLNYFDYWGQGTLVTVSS VL: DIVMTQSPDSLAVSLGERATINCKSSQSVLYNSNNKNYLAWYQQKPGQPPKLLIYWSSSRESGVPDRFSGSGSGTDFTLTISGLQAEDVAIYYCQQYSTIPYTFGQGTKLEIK 45

What value of FACS Cell Binding (Fold Above Background) has been reported for the following binder? H1H6793P (antibody, human IgG1, V domains shown, human IgG1 Fc (H1H)) VH: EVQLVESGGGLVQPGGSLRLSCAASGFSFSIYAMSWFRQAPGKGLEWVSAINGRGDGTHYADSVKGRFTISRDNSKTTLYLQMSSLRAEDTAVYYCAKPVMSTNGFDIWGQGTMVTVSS VL: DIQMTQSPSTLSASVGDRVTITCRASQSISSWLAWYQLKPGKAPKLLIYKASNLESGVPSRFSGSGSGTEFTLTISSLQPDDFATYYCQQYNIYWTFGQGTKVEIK 43

What value of FACS Cell Binding (Fold Above Background) has been reported for the following binder? H1H6792P (antibody, human IgG1, V domains shown, human IgG1 Fc (H1H)) VH: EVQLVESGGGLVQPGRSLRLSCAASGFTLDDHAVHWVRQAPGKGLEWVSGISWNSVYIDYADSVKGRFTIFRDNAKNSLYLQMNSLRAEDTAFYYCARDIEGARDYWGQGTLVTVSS VL: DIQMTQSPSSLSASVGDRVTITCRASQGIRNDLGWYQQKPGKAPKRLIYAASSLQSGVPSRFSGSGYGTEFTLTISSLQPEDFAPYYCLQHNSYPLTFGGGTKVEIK 37
